Sourced from patent US20170340544A1

- assay notes: Cytotoxicity (MTT) of oligopeptide in HaCaT human keratinocytes
- Type: cell-based
- condition parameters: 100 ppm oligopeptide, 24 hr, MTT absorbance 570 nm as percentage of pure water control
Ends that are not written are not given here.
observed property: viability (%)

| substance | measured value |
| --- | --- |
| GQQKRSDRLNLSR-OH [Oligopeptide] | 81 |
